Molecular target: Human JAK1 (Homo sapiens (Human), UniProt P23458)
Sequence (P23458 whole entry): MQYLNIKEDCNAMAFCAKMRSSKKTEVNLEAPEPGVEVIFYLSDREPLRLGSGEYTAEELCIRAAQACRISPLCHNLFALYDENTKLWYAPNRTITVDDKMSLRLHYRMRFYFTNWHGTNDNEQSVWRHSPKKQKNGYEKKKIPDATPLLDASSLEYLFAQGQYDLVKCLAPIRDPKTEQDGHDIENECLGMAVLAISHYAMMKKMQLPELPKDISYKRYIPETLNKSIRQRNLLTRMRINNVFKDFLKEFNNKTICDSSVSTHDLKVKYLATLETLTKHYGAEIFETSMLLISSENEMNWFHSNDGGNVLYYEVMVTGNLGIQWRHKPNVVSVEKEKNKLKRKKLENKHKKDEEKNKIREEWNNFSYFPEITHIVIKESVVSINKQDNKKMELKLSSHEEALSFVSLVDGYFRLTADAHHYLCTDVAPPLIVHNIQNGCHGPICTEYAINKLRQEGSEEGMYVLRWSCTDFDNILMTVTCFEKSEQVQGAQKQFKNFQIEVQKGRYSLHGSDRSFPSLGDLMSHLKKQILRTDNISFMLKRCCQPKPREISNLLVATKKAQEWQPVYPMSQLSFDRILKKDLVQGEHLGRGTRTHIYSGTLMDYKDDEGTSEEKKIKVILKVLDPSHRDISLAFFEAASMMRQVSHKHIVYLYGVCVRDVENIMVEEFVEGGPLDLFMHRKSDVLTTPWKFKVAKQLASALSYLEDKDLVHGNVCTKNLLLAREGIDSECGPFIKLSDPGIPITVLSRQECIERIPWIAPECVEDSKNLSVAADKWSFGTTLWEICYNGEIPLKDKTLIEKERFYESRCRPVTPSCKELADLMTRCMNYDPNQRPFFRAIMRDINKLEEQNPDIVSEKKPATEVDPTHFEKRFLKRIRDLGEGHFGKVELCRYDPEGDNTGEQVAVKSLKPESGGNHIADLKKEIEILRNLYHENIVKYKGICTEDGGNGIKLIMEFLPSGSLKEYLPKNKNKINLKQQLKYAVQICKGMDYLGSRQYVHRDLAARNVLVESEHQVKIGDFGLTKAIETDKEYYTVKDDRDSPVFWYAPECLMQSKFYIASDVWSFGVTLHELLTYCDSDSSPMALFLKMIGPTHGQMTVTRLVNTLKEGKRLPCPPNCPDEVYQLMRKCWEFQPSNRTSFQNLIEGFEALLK
Assay: In vitro kinase inhibition test, JAK1 (33P-ATP filter scintillation)
Type: biochemical
Conditions: compound at 1 uM; read-out: JAK1 kinase-phosphorylation inhibitory level (% inhibition)
reported_property: inhibition at 1 µM (%)

compound	tested_on	reported_property	number
CN(c1ncnc2[nH]ccc12)[C@H]1CN(C(=O)c2ccc(C#N)cc2)CC12CC2	Human JAK1 (Homo sapiens (Human), UniProt P23458)	inhibition at 1 µM	79
CC(C)S(=O)(=O)N1C[C@H](N(C)c2ncnc3[nH]ccc23)C2(CC2)C1	Human JAK1 (Homo sapiens (Human), UniProt P23458)	inhibition at 1 µM	97
CN(c1ncnc2[nH]ccc12)[C@H]1CN(S(=O)(=O)c2ccc(C#N)cc2)CC12CC2	Human JAK1 (Homo sapiens (Human), UniProt P23458)	inhibition at 1 µM	97
CN(c1ncnc2[nH]ccc12)[C@H]1CN(C(=O)c2ccccc2)CC12CC2	Human JAK1 (Homo sapiens (Human), UniProt P23458)	inhibition at 1 µM	81
CN(c1ncnc2[nH]ccc12)[C@H]1CN(C(=O)c2ccccc2C(F)(F)F)CC12CC2	Human JAK1 (Homo sapiens (Human), UniProt P23458)	inhibition at 1 µM	65
CN(c1ncnc2[nH]ccc12)C1CN(C(=O)CC#N)CC12CC2 (racemic)	Human JAK1 (Homo sapiens (Human), UniProt P23458)	inhibition at 1 µM	95
CN(c1ncnc2[nH]ccc12)[C@@H]1CN(C(=O)CN=[N+]=[N-])CC12CC2	Human JAK1 (Homo sapiens (Human), UniProt P23458)	inhibition at 1 µM	41
COc1ccc(S(=O)(=O)N2C[C@H](N(C)c3ncnc4[nH]ccc34)C3(CC3)C2)cc1	Human JAK1 (Homo sapiens (Human), UniProt P23458)	inhibition at 1 µM	99

----------
Target: Human JAK3 (Homo sapiens (Human))
Sequence (P52333 whole entry): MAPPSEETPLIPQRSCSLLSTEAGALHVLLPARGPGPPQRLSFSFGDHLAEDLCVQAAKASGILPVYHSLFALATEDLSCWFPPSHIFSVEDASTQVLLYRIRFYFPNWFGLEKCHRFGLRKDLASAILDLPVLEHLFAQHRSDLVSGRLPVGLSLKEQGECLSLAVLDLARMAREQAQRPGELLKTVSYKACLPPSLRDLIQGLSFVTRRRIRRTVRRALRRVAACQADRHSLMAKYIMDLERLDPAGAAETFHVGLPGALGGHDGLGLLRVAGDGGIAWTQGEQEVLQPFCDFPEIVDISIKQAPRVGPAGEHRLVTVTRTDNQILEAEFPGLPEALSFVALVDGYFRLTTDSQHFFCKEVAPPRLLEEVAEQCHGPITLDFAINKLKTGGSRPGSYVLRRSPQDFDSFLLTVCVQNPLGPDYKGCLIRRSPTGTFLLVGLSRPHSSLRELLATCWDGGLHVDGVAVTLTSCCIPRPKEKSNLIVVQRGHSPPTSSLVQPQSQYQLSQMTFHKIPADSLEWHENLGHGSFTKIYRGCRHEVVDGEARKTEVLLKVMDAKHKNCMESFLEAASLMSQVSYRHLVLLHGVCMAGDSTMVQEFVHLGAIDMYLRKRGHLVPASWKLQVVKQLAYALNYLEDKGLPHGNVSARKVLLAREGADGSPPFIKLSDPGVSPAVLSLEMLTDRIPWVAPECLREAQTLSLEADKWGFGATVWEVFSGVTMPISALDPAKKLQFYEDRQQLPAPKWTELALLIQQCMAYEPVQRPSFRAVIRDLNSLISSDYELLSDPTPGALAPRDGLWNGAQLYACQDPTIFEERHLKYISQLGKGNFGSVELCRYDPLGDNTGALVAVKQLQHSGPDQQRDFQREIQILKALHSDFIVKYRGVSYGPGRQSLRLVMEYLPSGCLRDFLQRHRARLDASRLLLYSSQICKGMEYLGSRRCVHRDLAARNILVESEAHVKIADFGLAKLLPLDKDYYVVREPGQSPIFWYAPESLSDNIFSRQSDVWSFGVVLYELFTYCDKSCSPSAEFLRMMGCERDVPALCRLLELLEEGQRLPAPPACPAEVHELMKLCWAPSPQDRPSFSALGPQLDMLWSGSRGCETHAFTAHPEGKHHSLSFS
Assay: In vitro kinase inhibition test, JAK3 (33P-ATP filter scintillation)
Assay type: biochemical
Details: compound at 1 uM; read-out: JAK3 kinase-phosphorylation inhibitory level (% inhibition)

compound	tested_on	unit_annotation	inhibition at 1 µM
CN(c1ncnc2[nH]ccc12)[C@H]1CN(C(=O)c2ccc(C#N)cc2)CC12CC2	Human JAK3 (Homo sapiens (Human))	%	15
CCS(=O)(=O)N1C[C@@H](N(C)c2ncnc3[nH]ccc23)C2(CC2)C1	Human JAK3 (Homo sapiens (Human))	%	-22
CN(c1ncnc2[nH]ccc12)C1CN(C(=S)CC#N)CC12CC2 (centres unmarked)	Human JAK3 (Homo sapiens (Human))	%	-14
CN(c1ncnc2[nH]ccc12)[C@H]1CN(S(=O)(=O)c2ccccc2F)CC12CC2	Human JAK3 (Homo sapiens (Human))	%	61
CN(c1ncnc2[nH]ccc12)[C@H]1CN(C(=O)CN=[N+]=[N-])CC12CC2	Human JAK3 (Homo sapiens (Human))	%	57
CNC(=O)CC(=O)N1CC(N(C)c2ncnc3[nH]ccc23)C2(CC2)C1 (centres unmarked)	Human JAK3 (Homo sapiens (Human))	%	-9
CN(c1ncnc2[nH]ccc12)[C@H]1CN(S(=O)(=O)c2ccc(C#N)cc2)CC12CC2	Human JAK3 (Homo sapiens (Human))	%	33
CN(c1ncnc2[nH]ccc12)C1CN(C(=O)CCN)CC12CC2 (centres unmarked)	Human JAK3 (Homo sapiens (Human))	%	-9
CCC(=O)N1C[C@@H](N(C)c2ncnc3[nH]ccc23)C2(CC2)C1	Human JAK3 (Homo sapiens (Human))	%	-1
CN(c1ncnc2[nH]ccc12)[C@H]1CN(S(=O)(=O)c2ccccc2C#N)CC12CC2	Human JAK3 (Homo sapiens (Human))	%	47
CCC(=O)N1CC(N(C)c2ncnc3[nH]ccc23)C2(CC2)C1 (centres unmarked)	Human JAK3 (Homo sapiens (Human))	%	17
Cc1ccc(NC(=O)N2C[C@H](N(C)c3ncnc4[nH]ccc34)C3(CC3)C2)cc1Cl	Human JAK3 (Homo sapiens (Human))	%	39
CN(c1ncnc2[nH]ccc12)[C@H]1CN(C(=S)CC#N)CC12CC2	Human JAK3 (Homo sapiens (Human))	%	82
CC(C)CC(=O)N1C[C@H](N(C)c2ncnc3[nH]ccc23)C2(CC2)C1	Human JAK3 (Homo sapiens (Human))	%	18
CN(c1ncnc2[nH]ccc12)[C@H]1CN(S(=O)(=O)c2ccc([N+](=O)[O-])cc2)CC12CC2	Human JAK3 (Homo sapiens (Human))	%	60
CC(C)C(=O)N1C[C@H](N(C)c2ncnc3[nH]ccc23)C2(CC2)C1	Human JAK3 (Homo sapiens (Human))	%	16
CN(c1ncnc2[nH]ccc12)[C@@H]1CN(C(=O)CN=[N+]=[N-])CC12CC2	Human JAK3 (Homo sapiens (Human))	%	-16
